Data origin: PubChem BioAssay AID624330

What inhibition was measured for each of the following?
SYSTEM: Rac GTPase-activating protein 1 (Homo sapiens) (UniProt Q9H0H5)
Sequence (Q9H0H5 whole entry, looked up): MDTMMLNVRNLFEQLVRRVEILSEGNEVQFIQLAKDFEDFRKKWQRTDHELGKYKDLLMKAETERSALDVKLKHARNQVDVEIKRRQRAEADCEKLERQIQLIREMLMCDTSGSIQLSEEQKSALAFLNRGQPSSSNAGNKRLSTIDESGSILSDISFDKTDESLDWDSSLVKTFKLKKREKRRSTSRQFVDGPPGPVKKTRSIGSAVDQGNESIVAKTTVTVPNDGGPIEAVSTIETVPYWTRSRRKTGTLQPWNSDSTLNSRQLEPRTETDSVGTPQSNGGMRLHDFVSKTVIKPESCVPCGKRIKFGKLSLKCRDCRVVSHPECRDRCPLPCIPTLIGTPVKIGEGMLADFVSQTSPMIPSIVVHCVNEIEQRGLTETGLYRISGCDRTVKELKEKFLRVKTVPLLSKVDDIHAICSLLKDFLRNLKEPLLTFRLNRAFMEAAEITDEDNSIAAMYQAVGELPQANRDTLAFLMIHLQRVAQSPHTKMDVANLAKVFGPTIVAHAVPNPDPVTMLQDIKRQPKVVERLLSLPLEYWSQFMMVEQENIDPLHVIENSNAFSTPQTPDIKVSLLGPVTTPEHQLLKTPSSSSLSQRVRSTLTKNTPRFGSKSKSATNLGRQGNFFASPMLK
ASSAY_TEXT: blockers of MgcRacGAP-driven Rac1 GTP hydrolysis – biochemical, ADP Hunter fluorescence, primary and confirmatory, confirmation (AID 624330);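 note: fluorescence reports GDP produced by GAP-driven GTP hydrolysis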
CONDITION: MgcRacGAP-stimulated Rac1 GTP hydrolysis, at 30 µM, hits give high values, GST-tagged Rac1 F28L mutant substrate
The campaign covered roughly 340,000 compounds. About 2,100 (0.62%) were called active. These entries were drawn from the full list. Results with a measured potency or affinity are listed apart.
One number for each entry, in %.

COMPOUND	DISPLAY_UNIT	inhibition
Cc1cccc(C(=O)c2cn[nH]c2-c2ccc(C)cc2O)c1	%	4.53
C[C@H]1c2cccc(O)c2C(O)=C2C(=O)[C@]3(O)C(O)=C(C(N)=O)C(=O)[C@@H](N(C)C)[C@@H]3[C@@H](O)[C@@H]21	%	8.18
C[C@H]1c2cccc(O)c2C(O)=C2C(=O)[C@]3(O)C(O)=C(C(N)=O)C(=O)[C@@H](N(C)C)C3[C@@H](O)C21 (stereo partly drawn)	%	2.79
c1ccc(COc2ncnc3c2ncn3CCCNCC2CCCO2)cc1 (stereo not drawn)	%	7.05
COc1ccc(C(=O)CC2OC(=O)c3c2ccc(OC)c3OC)cc1 (stereo not drawn)	%	-2.86
COCCCN1C(=O)C(CC(=O)NCc2ccco2)CC(C(=O)N(C)C)=C1C (stereo not drawn)	%	14.3

List inhibition for every entry below, keeping the order given.
1. COc1ccccc1OCC(=O)NNC(=O)CSC(=S)N1CCCC1
2. CCOc1ccc(N(CC(=O)Nc2cc(Cl)ccc2C)S(C)(=O)=O)cc1
3. Cc1nn(-c2cc(C(F)(F)F)ccc2Cl)c2nc(C(Cl)(Cl)Cl)[nH]c(=O)c12

*A*
1. 8.8
2. -0.16
3. 9.52

Hello, I would appreciate it if you could give inhibition for each entry below.
1. Cc1ccc(C)c(SCC(=O)NC(=O)NCc2ccccc2)c1
2. CC1CC(=O)N(c2ccc(NCCc3ccccc3)c([N+](=O)[O-])c2)C1=O (stereo not drawn)
3. Cc1ccc(C2=NN(C(=O)CSc3nc4ncc(Cl)cc4[nH]3)C(c3ccco3)C2)cc1 (stereo not drawn)
4. Cc1cn(C2CC(OC(=O)C(C)C)C(CO)O2)c(=O)[nH]c1=O (stereo not drawn)
5. O=C(Oc1ccc2ccc(O)cc2c1)c1ccccc1Cl
6. CCOC(=O)c1[nH]c2ccc(OC)cc2c1NC(=O)c1cccc(OC)c1
7. COc1ccc(N2CCN(C(=O)CCN3C(=O)C4C5C=CC(C5)C4C3=O)CC2)cc1 (stereo not drawn)
8. O=C(NN1C(=O)/C(=C\c2cccnc2)SC1=S)c1ccco1

*A*
6.96
12.4
5.98
6.43
18.6
5.01
10.9
13.7

Each compound below has a reported value. Please supply its inhibition.
1. Clc1ccc2nc3ccccc3cc2c1
2. O=C(c1ccnc(Cl)c1)N1CCCC(Nc2ccc(F)cc2)C1 (stereo not drawn)
3. CN(C(=O)COC(=O)COc1ccc2ccccc2c1)c1ccccc1
4. COc1ccc(CCN=C(N)NS(=O)(=O)c2ccc(F)cc2)cc1OC

*A*
1. 2.87
2. 6.71
3. 5.73
4. 7.56

Provide reported inhibition for each item, in the same order as listed.
1. COc1cc2c(cc1OC)C(c1ccccc1)N(C(=O)C(C)(C)C)CC2 (stereo not drawn)
2. O=C(COC(=O)c1cnccn1)NCCc1ccc(Cl)cc1
3. CCOC(=O)c1[nH]c2ccc(F)cc2c1NC(=O)c1ccccc1C(=O)O

*A*
[5.24, 8.82, 66]

I would be grateful if you could provide inhibition for each of the following entries.
1. COc1cc(Cc2cc(OC)c(O)c(OC)c2)cc(OC)c1O
2. O=c1ccc2c(-c3ccccc3S(=O)(=O)O)c3ccc(O)c(O)c3oc-2c1O
3. CCOc1cccc(CNc2ccc(O)cc2)c1OCc1ccc(Cl)cc1
4. Nc1cccc(O)c1
5. CCCCCn1c2c(c(=N)c3ccccc31)CCC2
6. O=C(O)c1ccccc1SC1CC(=O)N(c2ccc3c(c2)OCO3)C1=O (stereo not drawn)

*A*
1: 6.74; 2: 42.2; 3: 19.5; 4: 18.5; 5: 7.04; 6: -5.78

// batch mode: one inhibition value per listed entry
1. COc1ccc(CCNc2ccc(N3C(=O)CC(C)C3=O)cc2[N+](=O)[O-])cc1 (stereo not drawn)
2. CC(=O)N1CCc2cc(S(=O)(=O)CCC(=O)N(C)c3cc(C)ccc3C)ccc21
3. Cc1ccc(S(=O)(=O)CCC(=O)OCC(=O)Nc2cc(F)ccc2C)cc1
4. COc1cccc(OC)c1C(=O)NC(=S)NCc1cccnc1
5. O=C(O)c1ccccc1-c1ccc(/C=C2\SC(=O)N(c3ccccc3)C2=O)o1
6. CC(=O)C(=Nc1ccc(Cl)cc1Cl)NNc1cccc(Cl)c1
7. COc1ccc(NC(=O)Nc2nnc(CC(=O)NCc3ccccc3)s2)cc1
8. CC1CC(C)(C)N(C(=O)CN2C(=O)c3ccccc3C2=O)c2ccccc21 (stereo not drawn)

*A*
[3.45, 2.95, 1.06, 6.24, 6.66, 22.6, -13.3, 2.35]

The following compounds each have a reported value; give each one's inhibition.
1. COc1ccc(OC)c(S(=O)(=O)N2CCC(C(=O)N(C)Cc3ccccc3)CC2)c1
2. O=C(O)CC1(CC(=O)NCc2cc(F)cc3c2OCOC3)CCCCC1
3. CN1CCN(CC(=O)N2c3ccccc3C(C)(c3ccccc3)CC2(C)C)CC1 (stereo not drawn)
4. Cc1ccc(CSc2nnc(NC(=O)Cn3cnc4ccccc4c3=O)s2)cc1

*A*
[13.1, 5.25, 10.3, -8.67]

Form field inhibition, entry Cc1c(C(=O)N/N=C/c2cccnc2)sc(N)c1C#N : 6.19

---

SYSTEM: Rac GTPase-activating protein 1 (Homo sapiens) (UniProt Q9H0H5)
ASSAY_TEXT: blockers of MgcRacGAP-driven Rac1 GTP hydrolysis – biochemical, ADP Hunter fluorescence, primary and confirmatory, confirmation (AID 624330);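 note: fluorescence reports GDP produced by GAP-driven GTP hydrolysis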
CONDITION: MgcRacGAP-stimulated Rac1 GTP hydrolysis, at 30 µM, hits give high values, GST-tagged Rac1 F28L mutant substrate
About 2,100 (0.62%) of roughly 340,000 compounds were called active. Only a sample is shown. Results with a measured potency or affinity are listed apart.
MEASURED_PARAMETER: inhibition (%)
Give bare numbers, in %.

COMPOUND	inhibition [%]
CCN(CC)c1ccc(/C=N/NC(=O)c2ccc(Br)o2)cc1	14.9
Clc1ccc(OCCCN2CCCC2)cc1Cl	-13.7
O=C(c1cc(Cl)ccc1F)N1CCCC(Nc2ccc3c(c2)OCCO3)C1 (stereo not given)	30.3
CN(C)C=Nc1ccc2nn(-c3ccccc3)nc2c1	6.6
CN(C)C=Nc1ccc(Cl)c(Cl)c1	2.39

Batch request: inhibition for each of the following compounds.
1. CCOC(=O)C1CCN(Cc2ccccc2C)CC1
2. CC(C)(C)c1cccc(OCCCSc2ncccn2)c1
3. CCOC(=O)C1CCN(Cc2ccc(OCc3ccccc3)cc2)CC1
4. Cc1cc(Nc2ccccc2Cl)n2nnnc2n1
5. COc1ccc(C(=O)C2CCCN(C(=O)c3ccc(CSC)o3)C2)cc1F (stereo not given)
6. CN=c1scc(-c2ccc(Cl)cc2)n1C

*A*
1. 2.84
2. 4.61
3. 18.4
4. 2.54
5. 5.42
6. 3.57

// batch mode: one inhibition value per listed entry
1. COc1ccc2nnc(-c3ccccc3)n2n1
2. CSc1n[nH]c(NCc2ccc(C)cc2)n1
3. Cc1ccc(C)c(OCCCN2CCNCC2)c1
4. COC(=O)Cc1ccc(NC(=O)c2ccc(Br)o2)cc1
5. COC(=O)c1ccc(Oc2ccc3nnc(C)n3n2)cc1

*A*
1. 10.9
2. -0.45
3. 7.95
4. 18.8
5. -0.14

Give inhibition for each of the items listed below.
1. Cc1ccc(NC2CCCN(C(=O)c3ccccc3N3CCOCC3)C2)cc1C (stereo not given)
2. CCCCSc1ncnc2c1ncn2C1CCCCO1 (stereo not given)
3. CCOC(=O)c1ccccc1NC(=O)COC(=O)c1ccc(OCC(=O)N2CCOCC2)c(OCC)c1
4. COC(=O)c1cccc(C(=O)N2CCCC(Nc3ccc4c(c3)OCCO4)C2)c1 (stereo not given)
5. COc1ccc(/C=C2\CCCC(C(=O)C(F)(F)F)=C2O)cc1
6. Cc1ccc(CN2CCN(/N=C/c3ccc(C)s3)CC2)c(C)c1
7. Cc1ccc(OCCCCN2CCCCC2)c(Br)c1
8. CCOC(=O)/C=C1\SCC(=O)N1CC(=O)NC(c1ccccc1)c1ccccc1

*A*
0.36
0.67
4.78
29.2
4.33
4.97
6.79
5.26

Entry Cc1cc(C)c(C(=O)N2CCCC(Nc3ccc(C)c(C)c3)C2)o1 (stereo not given) ; inhibition = -18
